This collection of values is drawn from patent US9371331B2.

Give measured EC50 for each item. Keep answers brief.
test system: H3K27me3 mark in HeLa cells; assay: H3K27me3 Alpha Hela Assay (AlphaLISA); format: cell-based; conditions: Homo sapiens, 72 hrs, read-out: H3K27me3_Alpha_HeLa_ (EC50)
Structures can show the parent of a compound that is named as a salt.

input: Value lookup for EC50; key = COc1cc(C)[nH]c(=O)c1CNC(=O)c1c(C)n(C(C)C2CCN(c3ccccn3)CC2)c2ccccc12 (single isomer, unassigned)
output: < 400 nM

input: Endpoint output: EC50 of CCN1CCC(C(C)n2c(C)c(C(=O)NCc3c(OC)cc(C)[nH]c3=O)c3ccccc32)CC1 (single isomer, unassigned) . Value?
output: 2000 to 10000 nM

input: Endpoint output: EC50 of COc1cc(C)[nH]c(=O)c1CNC(=O)c1c(C)n(C(C)C2CCOCC2)c2ncccc12 (single isomer, unassigned) . Value?
output: < 400 nM

input: Record request: EC50 value, item Cc1cc(C)c(CNC(=O)c2c(C)n(C(C)C3CCN(C4CN(C)C4)CC3)c3ccccc23)c(=O)[nH]1 (single isomer, unassigned)
output: 400 to 2000 nM

input: Which EC50 reading was recorded for the molecule Cc1cc(C)c(CNC(=O)c2c(C)n(C(C)C3CC3)c3ncccc23)c(=O)[nH]1 (single isomer, unassigned) ?
output: < 400 nM

input: Name the reported EC50 value associated with the molecule COc1cc(C)[nH]c(=O)c1CNC(=O)c1c(C)n(C(C)C2CCNCC2)c2ccccc12 (single isomer, unassigned) [Compound 326, hydrochloride]
output: 400 to 2000 nM

input: Please look up its EC50: Cc1cc(OC(F)F)c(CNC(=O)c2c(C)n(C(C)C3CCOCC3)c3ccccc23)c(=O)[nH]1 (single isomer, unassigned)
output: < 400 nM

input: Entry under review: COc1cc(C)[nH]c(=O)c1CNC(=O)c1c(C)n(C(C)C2CCN(CC(F)(F)F)CC2)c2ccccc12 (single isomer, unassigned) . Reported EC50?
output: < 400 nM

input: Give its EC50 value. Item: COc1cc(C)[nH]c(=O)c1CNC(=O)c1c(C)n(C(C)C2CCN(C(=O)OC(C)(C)C)CC2)c2ncncc12 (stereo not drawn)
output: 400 to 2000 nM

input: Reported EC50, molecule COc1cc(C)[nH]c(=O)c1CNC(=O)c1c(C)n(C(C)C2CCN(C(=O)C(C)(C)O)CC2)c2ccccc12 (single isomer, unassigned) : ____
output: < 400 nM

input: Any idea what its EC50 is? The molecule is COc1cc(C)[nH]c(=O)c1CNC(=O)c1c(C)n(C(C)C2CCN(S(C)(=O)=O)CC2)c2ccccc12 (single isomer, unassigned)
output: < 400 nM

input: Endpoint output: EC50 of COc1cc(C)[nH]c(=O)c1CNC(=O)c1c(C)n(C(C)c2ccccc2)c2ccccc12 (single isomer, unassigned) . Value?
output: 400 to 2000 nM
